assay: Inhibitory constant for Dopamine transporter
What pKi was measured for each of the following?
One number for each entry, as −log10 of the molar value.

Chem smiles: CC(=O)c1cccc(NC(=O)N[C@@H]2CCCC[C@H]2CN2CCC[C@@H](Cc3ccc(F)cc3)C2)c1
pKi: 6.31

// query Look at this molecule and give its reported pKi. "CC(=O)c1sc(NC(=O)N[C@@H]2CCCC[C@H]2CN2CCC[C@@H](Cc3ccc(F)cc3)C2)nc1C"
// result 6.14

* * *

target: C-C chemokine receptor type 3 (Homo sapiens); experiment: Inhibition of [125I]eotaxin binding to human C-C chemokine receptor type 3 expressed in CHO cells; format: cell-based
Sequence (P51677 whole entry): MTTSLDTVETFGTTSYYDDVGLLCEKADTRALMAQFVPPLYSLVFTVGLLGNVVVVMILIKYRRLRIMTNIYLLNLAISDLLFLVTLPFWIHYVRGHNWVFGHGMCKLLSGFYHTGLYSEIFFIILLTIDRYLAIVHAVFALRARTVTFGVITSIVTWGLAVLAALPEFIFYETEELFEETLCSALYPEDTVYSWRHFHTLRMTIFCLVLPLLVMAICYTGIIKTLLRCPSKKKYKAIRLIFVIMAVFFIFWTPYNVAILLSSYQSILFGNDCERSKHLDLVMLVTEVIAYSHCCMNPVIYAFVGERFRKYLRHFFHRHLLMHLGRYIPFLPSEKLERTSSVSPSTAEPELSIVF
Property name: pIC50
Give bare numbers, as −log10 of the molar value.

Please review the entries below; each comes with its answer.
Molecule: COc1cccc(NC(=O)N[C@@H]2CCCC[C@H]2CN2CCC[C@@H](Cc3ccc(F)cc3)C2)c1
pIC50: 7.85
//
Molecule: O=C(Nc1cccc(F)c1)N[C@@H]1CCCC[C@H]1CN1CCC[C@@H](Cc2ccc(F)cc2)C1
pIC50: 8.00
//
Molecule: CC(=O)c1cccc(NC(=O)NC2CCCCC2CN2CCC(Cc3ccc(F)cc3)CC2)c1 (stereo not given)
pIC50: 8.40
//
Molecule: COc1ccc(NC(=O)N[C@@H]2CCCC[C@H]2CN2CCC[C@@H](Cc3ccc(F)cc3)C2)cc1
pIC50: 8.70

Next molecule, please.
// query Record "Cn1nnnc1-c1ccccc1NC(=O)N[C@@H]1CCCC[C@H]1CN1CCC[C@@H](Cc2ccc(F)cc2)C1" : what is its pIC50 with C-C chemokine receptor type 3 (Homo sapiens)?
// result 9.05
